- target.system: T1, Recombinant human B7-H3 extracellular domain protein (UniProtKB-Q5ZPR3, amino acids 1-461, C-His tag) (human, UniProt Q5ZPR3 29-461)
- T1 construct: range 1-461; The printed range 1-461 starts at residue 1 and so covers the signal peptide; also called human B7-H3 ECD-His; recombinant human B7-H3 ECD protein; not shown: C-terminal His tag
- T1 sequence (looked up): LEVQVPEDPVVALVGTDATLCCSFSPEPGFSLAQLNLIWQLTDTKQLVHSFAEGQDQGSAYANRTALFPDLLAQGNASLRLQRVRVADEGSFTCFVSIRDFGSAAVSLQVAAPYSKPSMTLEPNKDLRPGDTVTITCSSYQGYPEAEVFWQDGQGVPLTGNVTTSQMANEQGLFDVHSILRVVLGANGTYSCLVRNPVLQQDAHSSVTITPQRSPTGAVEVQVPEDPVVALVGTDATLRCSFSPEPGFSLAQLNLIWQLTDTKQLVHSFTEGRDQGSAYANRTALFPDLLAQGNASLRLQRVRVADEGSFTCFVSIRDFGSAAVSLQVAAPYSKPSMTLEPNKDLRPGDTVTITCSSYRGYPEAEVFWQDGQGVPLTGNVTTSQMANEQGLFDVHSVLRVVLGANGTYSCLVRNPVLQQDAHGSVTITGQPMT
- test.method.notes: BLI (ForteBio Octet QKe), antibody on AHC probes, 60 nM antigen, 1:1 Langmuir fit
measurement.label: kon (M⁻¹ s⁻¹)
Numbers only, in M⁻¹ s⁻¹.

GET /value?item= hz10B4m3 (antibody, V domains shown, LCDR3 variant of hz10B4 (SSN→SSQ); also called hz10B4-VH×hz10B4-Lm3-VL) VH: EVQLVQSGAEVKKPGASVKVSCKASGYTFTEYIMHWVRQAPGQGLEWMGGINPASGGTTYNQKFKGRVTMTRDTSISTAYMELSRLRSEDTAVYYCARKGKDYFDWYFDVWGQGTTVTVSS VL: DIQLTQSPSSLSASVGDRVTMTCSASSSVSYMHWYQQKPGKAPKLLIYDTSKLASGVPSRFSGSGSGTDFTLTISSLQPEDFATYYCQQWSSQPLTFGGGTKVEIK &field=kon returns 666000

New cases:
GET /value?item= hz10B4m2 (antibody, V domains shown, LCDR3 variant of hz10B4 (SSN→SAS); also called hz10B4-VH×hz10B4-Lm2-VL) VH: EVQLVQSGAEVKKPGASVKVSCKASGYTFTEYIMHWVRQAPGQGLEWMGGINPASGGTTYNQKFKGRVTMTRDTSISTAYMELSRLRSEDTAVYYCARKGKDYFDWYFDVWGQGTTVTVSS VL: DIQLTQSPSSLSASVGDRVTMTCSASSSVSYMHWYQQKPGKAPKLLIYDTSKLASGVPSRFSGSGSGTDFTLTISSLQPEDFATYYCQQWSASPLTFGGGTKVEIK &field=kon returns 755000
